Entries and their pIC50
Target: PRMT5/MEP50 complex (Homo sapiens, UniProt O14744)
Sequence (O14744 whole entry, the tested form may be a part): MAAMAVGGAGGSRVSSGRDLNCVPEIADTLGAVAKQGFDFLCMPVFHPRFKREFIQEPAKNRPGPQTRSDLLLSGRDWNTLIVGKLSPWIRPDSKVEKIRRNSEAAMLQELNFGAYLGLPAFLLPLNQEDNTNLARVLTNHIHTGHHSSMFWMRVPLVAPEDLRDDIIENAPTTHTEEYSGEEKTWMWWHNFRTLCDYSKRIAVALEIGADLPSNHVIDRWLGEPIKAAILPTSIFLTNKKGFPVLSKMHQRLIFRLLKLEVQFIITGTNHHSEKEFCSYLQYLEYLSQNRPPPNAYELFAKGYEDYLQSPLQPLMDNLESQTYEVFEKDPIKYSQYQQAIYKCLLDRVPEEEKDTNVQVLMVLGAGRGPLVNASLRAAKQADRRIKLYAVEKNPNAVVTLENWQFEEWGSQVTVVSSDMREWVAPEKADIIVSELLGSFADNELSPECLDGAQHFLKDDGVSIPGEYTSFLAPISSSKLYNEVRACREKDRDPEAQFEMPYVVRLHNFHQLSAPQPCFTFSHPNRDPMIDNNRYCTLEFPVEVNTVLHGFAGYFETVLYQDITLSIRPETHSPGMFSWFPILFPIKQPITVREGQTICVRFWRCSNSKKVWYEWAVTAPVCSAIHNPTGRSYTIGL
Sequence (Q9BQA1 whole entry, further chain, the tested form may be a part): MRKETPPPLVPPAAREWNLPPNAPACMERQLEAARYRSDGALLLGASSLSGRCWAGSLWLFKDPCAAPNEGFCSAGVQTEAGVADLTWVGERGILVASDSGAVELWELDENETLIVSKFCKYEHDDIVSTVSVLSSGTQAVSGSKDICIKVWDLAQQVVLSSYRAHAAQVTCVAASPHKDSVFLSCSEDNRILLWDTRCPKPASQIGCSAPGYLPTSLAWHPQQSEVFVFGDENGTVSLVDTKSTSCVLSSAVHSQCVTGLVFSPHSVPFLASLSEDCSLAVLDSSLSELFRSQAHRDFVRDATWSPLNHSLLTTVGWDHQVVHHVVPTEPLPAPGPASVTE
Test: Inhibition of recombinant human fetal brain FLAG-tagged PRMT5/full length human testis 6His-tagged MEP50 expressed in baculovirus infected insect Sf9 cells using human histone H4 (1 to 15 residues) as substrate preincubated for 30 mins followed by [3H]-SAM addition
pIC50: −log10 of the molar value.
observed-property: pIC50

molecule="CN(C(=O)c1cocn1)c1cccc(OCC(O)CN2CCc3ccccc3C2)c1 (stereo not given)" observed_property=pIC50 reported_value="4.40 to 5.00"
molecule="CN1CCC(n2cnc3ccc(-c4ccnc(NCC(O)CN5CCc6ccccc6C5)c4)cc32)CC1 (stereo not given)" observed_property=pIC50 reported_value="> 7.00"
molecule="Cn1cnc2ccc(-c3ccnc(NCC(O)CN4CCc5ccccc5C4)c3)nc21 (stereo not given)" observed_property=pIC50 reported_value="> 7.00"
molecule="CN1CCN(S(=O)(=O)c2ccccc2OCC(=O)NCC(O)CN2CCc3ccccc3C2)CC1 (stereo not given)" observed_property=pIC50 reported_value="> 7.00"
molecule="OC(COCC1CCCCC1)CN1CCc2ccccc2C1 (stereo not given)" observed_property=pIC50 reported_value="5.00 to 6.00"
molecule="CC(C)(C)OC(=O)N1CC(OCC(O)CN2CCc3ccccc3C2)C1 (stereo not given)" observed_property=pIC50 reported_value="5.00 to 6.00"
molecule="Nc1ncccc1OCC(=O)NCC(O)CN1CCc2ccccc2C1 (stereo not given)" observed_property=pIC50 reported_value="5.00 to 6.00"
molecule="O=C(Nc1cccc(OCC(O)CN2CCc3ccccc3C2)c1)c1cnccn1 (stereo not given)" observed_property=pIC50 reported_value="6.00 to 7.00"
molecule="O=C(Nc1cc[nH]n1)c1cccc(OCC(O)CN2CCc3ccccc3C2)c1 (stereo not given)" observed_property=pIC50 reported_value="5.00 to 6.00"
molecule=Cn1cnc2ccc(-c3cccc(OC[C@@H](O)CN4CCc5ccccc5C4)c3)cc21 observed_property=pIC50 reported_value="6.00 to 7.00"
